experiment: Blood-brain barrier penetration, brain-to-plasma ratio in rat; assay type: in vivo; conditions: Sprague-Dawley rat, IV 1 mg/kg, 2 hour, n=3
property label: Kp at 2 h
Provide a numeric answer; units are not to be included.

Solved entries (count: 3):
molecule	Kp at 2 h
CCN(CC)CCn1cc(C(=O)C2COc3ccc(OC)cc3C2)c2ccc(-c3cn[nH]c3Cl)cc21 (stereo not shown)	0.98
CN1CC[C@@H]1Cn1cc(C(=O)C2COc3ccc(Cl)cc3C2)c2ccc(-c3cn[nH]c3Cl)cc21 (stereo partly shown)	0.59
CNCCn1cc(C(=O)C2COc3ccc(OC)cc3C2)c2ccc(-c3cn[nH]c3F)cc21 (stereo not shown)	1.38

The record that follows has no Kp at 2 h shown yet.
Given the molecule CN1CC[C@H]1Cn1nc(C(=O)C2COc3ccc(F)cc3C2)c2ccc(-c3c[nH]nc3F)cc21 (stereo partly shown) , what is its reported Kp at 2 h?
20.2

Source listed as patent US20240360139A1.
